Molecular target: AR protein (Homo sapiens, UniProt P10275)
Construct: degradation activity of the compounds disclosed in the present disclosure on AR protein in VCaP cells; host or cells: VCaP
Sequence (P10275 whole entry): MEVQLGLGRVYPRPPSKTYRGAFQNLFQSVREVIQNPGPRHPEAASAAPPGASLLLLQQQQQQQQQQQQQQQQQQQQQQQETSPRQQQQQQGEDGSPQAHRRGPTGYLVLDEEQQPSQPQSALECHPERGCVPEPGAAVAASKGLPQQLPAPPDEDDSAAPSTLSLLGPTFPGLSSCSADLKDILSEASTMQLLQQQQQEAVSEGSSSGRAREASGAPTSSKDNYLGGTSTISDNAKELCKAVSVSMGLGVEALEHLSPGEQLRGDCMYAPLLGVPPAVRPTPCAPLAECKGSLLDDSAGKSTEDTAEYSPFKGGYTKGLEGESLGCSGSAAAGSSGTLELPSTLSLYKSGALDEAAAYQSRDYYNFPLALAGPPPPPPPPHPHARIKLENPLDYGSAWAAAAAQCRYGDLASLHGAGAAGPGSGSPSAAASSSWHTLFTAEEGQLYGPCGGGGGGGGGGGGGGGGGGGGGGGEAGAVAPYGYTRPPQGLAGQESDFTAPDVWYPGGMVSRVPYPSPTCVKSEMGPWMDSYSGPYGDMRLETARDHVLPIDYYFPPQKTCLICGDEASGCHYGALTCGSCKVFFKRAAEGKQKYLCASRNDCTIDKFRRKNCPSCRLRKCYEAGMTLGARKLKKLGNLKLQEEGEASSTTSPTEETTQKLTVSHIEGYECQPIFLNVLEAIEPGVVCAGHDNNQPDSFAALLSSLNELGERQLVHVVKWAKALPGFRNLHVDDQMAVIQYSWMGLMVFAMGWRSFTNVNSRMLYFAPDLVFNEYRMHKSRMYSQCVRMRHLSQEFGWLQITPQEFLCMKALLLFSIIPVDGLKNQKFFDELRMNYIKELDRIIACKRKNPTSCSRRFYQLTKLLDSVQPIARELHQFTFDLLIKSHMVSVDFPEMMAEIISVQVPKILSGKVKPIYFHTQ
Assay: Degradation of AR protein in VCaP cells (Western blot)
Assay type: cell-based
Details: compound at 100 nM, 8 hours, read-out: Degradation rate of the AR protein in VCaP cells, 100 nM (%)
Hi, to clarify the labels: Yes covers inhibition at 0.1 µM from 60% upward, No covers anything below 60%.

Solved entries:
COc1cc(O[C@H]2C(C)(C)[C@H](NC(=O)c3ccc(N4CCC(C)(CN5CCC6(CC5)COc5cc7c(cc56)C(=O)N(C5CCC(=O)NC5=O)C7=O)CC4)cc3)C2(C)C)ccc1C#N (some centres unmarked) [Compound 288]    No
N#Cc1ccc(O[C@H]2CC[C@H](NC(=O)c3ccc(N4CC(N5CCC6(CC5)Cc5cc7c(cc5O6)C(=O)N(C5CCC(=O)NC5=O)C7=O)C4)nn3)CC2)cc1Cl (some centres unmarked) [Compound 79]    No
N#Cc1ccc(O[C@H]2CC[C@H](NC(=O)c3ccc(N4CC5(CC(N6CCC7(CC6)COc6cc8c(cc67)C(=O)N(C6CCC(=O)NC6=O)C8=O)C5)C4)nn3)CC2)cc1Cl (some centres unmarked) [Compound 50]    Yes
N#Cc1ccc(O[C@H]2CC[C@H](NC(=O)c3ccc(N4CC[C@H](CN5CCC6(CC5)COc5cc7c(cc5C6)C(=O)N(C5CCC(=O)NC5=O)C7=O)C4)nn3)CC2)cc1Cl (some centres unmarked) [Compound 74]    Yes

Please turn your attention to the following entry.
## Input Does inhibition at 0.1 µM meet or surpass 60% for N#Cc1ccc(O[C@H]2CC[C@H](NC(=O)c3ccc(N4CC(N5CCC6(CCc7cc8c(cc7O6)CN(C6CCC(=O)NC6=O)C8=O)CC5)C4)nn3)CC2)cc1Cl (some centres unmarked) [Compound 42] ?
## Output No

###

Biological target: AR protein (Homo sapiens, UniProt P10275, T878A)
Construct: degradation activity of the compounds disclosed in the present disclosure on AR protein in LNCaP cells; host or cells: LNCaP FGC
Sequence (P10275 whole entry T878A): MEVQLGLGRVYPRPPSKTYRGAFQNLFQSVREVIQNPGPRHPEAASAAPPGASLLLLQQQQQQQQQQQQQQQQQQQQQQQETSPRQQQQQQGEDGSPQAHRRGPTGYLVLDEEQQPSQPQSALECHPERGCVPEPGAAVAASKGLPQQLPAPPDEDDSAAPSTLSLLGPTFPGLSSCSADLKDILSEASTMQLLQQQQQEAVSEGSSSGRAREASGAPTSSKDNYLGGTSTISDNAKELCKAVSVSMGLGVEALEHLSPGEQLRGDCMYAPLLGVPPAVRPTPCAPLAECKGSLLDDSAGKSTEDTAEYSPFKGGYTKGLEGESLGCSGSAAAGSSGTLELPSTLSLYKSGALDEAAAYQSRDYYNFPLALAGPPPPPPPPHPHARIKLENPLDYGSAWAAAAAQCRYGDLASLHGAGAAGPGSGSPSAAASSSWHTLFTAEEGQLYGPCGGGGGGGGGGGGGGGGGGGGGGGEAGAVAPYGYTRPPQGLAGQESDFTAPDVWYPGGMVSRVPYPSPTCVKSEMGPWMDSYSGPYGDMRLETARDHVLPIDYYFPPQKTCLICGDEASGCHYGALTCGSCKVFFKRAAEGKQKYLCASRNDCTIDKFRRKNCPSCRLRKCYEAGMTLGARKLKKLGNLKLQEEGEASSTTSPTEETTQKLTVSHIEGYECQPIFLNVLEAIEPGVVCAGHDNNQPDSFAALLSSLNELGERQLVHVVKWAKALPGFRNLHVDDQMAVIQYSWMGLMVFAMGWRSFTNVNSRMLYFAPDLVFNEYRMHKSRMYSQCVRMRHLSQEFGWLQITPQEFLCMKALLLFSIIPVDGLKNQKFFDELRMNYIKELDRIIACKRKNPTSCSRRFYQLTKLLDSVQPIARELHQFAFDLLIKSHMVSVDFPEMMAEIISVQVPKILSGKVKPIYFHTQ
Assay: Degradation of AR protein in LNCaP cells (Western blot)
Assay type: cell-based
Settings: LNCaP cells, compound 10 nM, 8 hours, Western blot grayscale, GAPDH internal reference; read-out: Degradation rates of the AR protein in LNCaP cells, 10 nM (%)
Listing: inhibition at 0.01 µM of selected compounds
Field: numeric (%). Do not append units.

Below, each entry is followed by its recorded inhibition at 0.01 µM result.
CCOC1(CN2CCC3(CC2)COc2c3ccc3c2C(=O)N(C2CCC(=O)NC2=O)C3=O)CCN(c2ccc(C(=O)N[C@H]3CC[C@H](Oc4ccc(C#N)c(OC)c4)CC3)nn2)CC1 (stereo partly shown)    24
CCC1(CN2CCC3(CC2)COc2c3ccc3c2C(=O)N(C2CCC(=O)NC2=O)C3=O)CCN(c2ccc(C(=O)N[C@H]3C(C)(C)[C@H](Oc4ccc(C#N)c(OC)c4)C3(C)C)cc2)CC1 (stereo partly shown)    22
N#Cc1ccc(O[C@H]2CC[C@H](NC(=O)c3ccc(N4CC[C@H](CN5CCC6(CC5)COc5cc7c(cc56)C(=O)N(C5CCC(=O)NC5=O)C7=O)C4)nn3)CC2)cc1Cl (stereo partly shown)    33

Now, please, on to the next compound.
## Input Report inhibition at 0.01 µM for N#Cc1ccc(O[C@H]2CC[C@H](NC(=O)c3ccc(N4CCC5(CC4)CC(C(=O)N4CCC6(CC4)COc4c6ccc6c4CN(C4CCC(=O)NC4=O)C6=O)C5)nn3)CC2)cc1Cl (stereo partly shown) please.
## Output 53

###

Molecular target: AR protein (Homo sapiens, UniProt P10275, T878A)
Construct: degradation activity of the compounds disclosed in the present disclosure on AR protein in LNCaP cells; host or cells: LNCaP FGC
Assay: Degradation of AR protein in LNCaP cells (Western blot)
Format: cell-based
Conditions: LNCaP cells, compound 100 nM, 8 hours, Western blot grayscale, GAPDH internal reference; read-out: Degradation rates of the AR protein in LNCaP cells, 100 nM (%)
# inhibition at 0.1 µM annotations

COc1cc(O[C@H]2C(C)(C)[C@H](NC(=O)c3ccc(N4CCC(C)(CN5CCC6(CC5)COc5cc7c(cc56)C(=O)N(C5CCC(=O)NC5=O)C7=O)CC4)cc3)C2(C)C)ccc1C#N (stereo partly drawn)    18%

## Input Looking for the measured inhibition at 0.1 µM of COc1cc(O[C@H]2C(C)(C)[C@H](NC(=O)c3ccc(N4CCC(C)(CN5CCC6(CCc7cc8c(cc7O6)C(=O)N(C6CCC(=O)NC6=O)C8)CC5)CC4)cc3)C2(C)C)ccc1C#N (stereo partly drawn) , can you help?
## Output 66%

## Input Lookup COc1cc(O[C@H]2C(C)(C)[C@H](NC(=O)c3ccc(N4CCC(F)(CN5CCC6(CC5)COc5cc7c(cc5O6)CN(C5CCC(=O)NC5=O)C7=O)CC4)cc3)C2(C)C)ccc1C#N (stereo partly drawn)
## Output 51%
